The origin of these recorded values is PubChem BioAssay (NCI).

Here, each record is paired with measured TGI data.
Tested on: LXFL 529 NSCLC
assayInfo: NCI tumour cell line growth inhibition, 48 h

Consider the following illustrative entries.
CCOc1c(Cc2ccccc2)c(=O)n2c3ccccc3n3c(=O)n(C)c(=O)c1c23 :: > 100 µM
O=[P+](O)c1cc2c3ccccc3ccc2c2ccccc12 :: > 100 µM
COC(=O)C1=C(c2cc(OC)c(OC)c(OC)c2)OC(c2cc(OC)c(OC)c(OC)c2)C1 (centres undefined) :: 54.9 µM

*Q* In one line, give reported TGI of the entry O=C1CCC(=O)C(C(=O)CCC(=O)Nc2ccc(Cl)cc2)C1 (centres undefined) .
*A* > 100 µM

---

Test system: MOLT-4 leukemia
assayInfo: NCI tumour cell line growth inhibition, 48 h
Here, each record is paired with measured TGI data.

CC(=O)O[C@H]1CC[C@]2(C=O)[C@H]3CC[C@]4(C)[C@@H](C5=CC(=O)OC5)CC[C@]4(O)[C@@H]3CC[C@]2(O)C1 :: 0.0798 µM
CC(C)C(NCc1c2ccccc2nc2ccccc12)C(=O)O (stereo not given) :: 69.1 µM
COc1ccc(C(=O)C(CN(C)C)c2ccccc2)cc1 (stereo not given) :: > 100 µM

*Q* In one line, give reported TGI of the entry "O=c1[nH]c(=O)c2c([nH]1)[nH]c1ccccc12" .
*A* > 100 µM

*Q* In one line, give reported TGI of the entry "COc1ccc(-c2nc3ncccn3c2-c2ccc(S(C)(=O)=O)cc2)cc1" .
*A* > 100 µM

*Q* In one line, give reported TGI of the entry "C[C@@H]1CC[C@H]2C(CN(C)CC3=C(C(F)(F)F)O[C@@H]4O[C@@]5(C)CC[C@H]6[C@H](C)CC[C@@H]3[C@@]46OO5)=C(C(F)(F)F)O[C@@H]3O[C@@]4(C)CC[C@@H]1[C@]32OO4" .
*A* > 100 µM

*Q* In one line, give reported TGI of the entry CC1CC/C(=C\c2ccc(F)cc2)C2=C1C(c1ccc(F)cc1)NC(=S)N2 (stereo not given) .
*A* > 100 µM

*Q* In one line, give reported TGI of the entry COc1cc(C2CC(c3cc(Cl)c(C)cc3O)=NN2c2ccc(S(N)(=O)=O)cc2)cc(OC)c1OC (stereo not given) .
*A* > 100 µM

*Q* In one line, give reported TGI of the entry Nc1nc(Cl)cc(NCC2CC(O)(CO)C2)n1 (stereo not given) .
*A* > 100 µM

*Q* In one line, give reported TGI of the entry c1ccc(C2C3=C(CCCC3)Nc3nnnn32)cc1 (stereo not given) .
*A* > 100 µM

*Q* In one line, give reported TGI of the entry "CCc1cc(Nc2nccc(-c3c(-c4ccc(OC)c(C(=O)Nc5c(F)cccc5F)c4)nc4ccccn34)n2)c(OC)cc1N1CCC(N2CCN(S(C)(=O)=O)CC2)CC1" .
*A* > 100 µM

*Q* In one line, give reported TGI of the entry "C/C(=C\COc1ccc2ccc(=O)oc2c1)CCC(=O)C(C)(C)O" .
*A* 67.5 µM

*Q* In one line, give reported TGI of the entry "Cc1cnc2cc(Cl)ccc2c1SCC(=O)O" .
*A* > 100 µM

*Q* In one line, give reported TGI of the entry CN1CCN(C2CC(=O)c3c(Cl)sc(Cl)c32)CC1 (stereo not given) .
*A* > 51.9 µM

*Q* In one line, give reported TGI of the entry COC(=O)C([O][Ge]([CH3])([CH3])[CH3])c1ccccc1 (stereo not given) .
*A* > 100 µM

*Q* In one line, give reported TGI of the entry "CCOC(=O)Nc1ccc2nc(Sc3ccc(Cl)cc3)sc2c1" .
*A* > 87.6 µM

*Q* In one line, give reported TGI of the entry "N#CCCCCCn1c2ccccc2c2c3c(c4c5ccccc5[nH]c4c21)C(=O)N(O)C3=O" .
*A* 4.33 µM

*Q* In one line, give reported TGI of the entry "CC(C)(CO)Nc1c(O)c2c(c(O)c1Cl)C(=O)C=CC2=O" .
*A* 3.3 µM

*Q* In one line, give reported TGI of the entry "O=C1CCc2c(sc3ncnc(Nc4cccc(Br)c4)c23)C1" .
*A* > 27 µM

*Q* In one line, give reported TGI of the entry CCC(C)Cn1c(C)nc2c1C(=O)c1ccccc1C2=O (stereo not given) .
*A* > 100 µM
